Biological target: T1, Fusion protein of extracellular domain of human TIGIT and His-tag (human TIGIT ECD-his) (human)
T1 chain: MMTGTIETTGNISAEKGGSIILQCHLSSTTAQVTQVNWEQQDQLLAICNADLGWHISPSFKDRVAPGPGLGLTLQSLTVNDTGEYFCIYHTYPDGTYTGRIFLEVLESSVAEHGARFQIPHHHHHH
Assay: BIAcore
# kon values compiled below
Parameter Measured: kon (M⁻¹ s⁻¹)

{"Binder": "TIGIT-CHI-006 (antibody, V domains shown, Human-mouse chimeric antibody) VH: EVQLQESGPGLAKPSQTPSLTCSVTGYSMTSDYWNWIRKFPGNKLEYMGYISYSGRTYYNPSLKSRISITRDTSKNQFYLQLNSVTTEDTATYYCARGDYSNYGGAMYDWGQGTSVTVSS VL: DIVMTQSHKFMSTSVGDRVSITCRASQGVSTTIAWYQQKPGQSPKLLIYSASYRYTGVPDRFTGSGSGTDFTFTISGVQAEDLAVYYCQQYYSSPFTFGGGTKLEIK", "Value Observed": "2.09e+06"}
{"Binder": "TIGIT-002-H1L3 (antibody, V domains shown, Humanized anti-TIGIT antibody) VH: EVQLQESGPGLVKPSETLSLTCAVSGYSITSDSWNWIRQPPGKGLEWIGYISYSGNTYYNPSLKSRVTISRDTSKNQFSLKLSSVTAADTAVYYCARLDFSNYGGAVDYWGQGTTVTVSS VL: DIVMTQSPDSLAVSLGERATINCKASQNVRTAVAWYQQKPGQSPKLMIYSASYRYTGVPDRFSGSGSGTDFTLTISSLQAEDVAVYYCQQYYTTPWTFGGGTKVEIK", "Value Observed": "3.59e+06"}
